System: wheat
assay-protocol: Test C pre-/postemergence test
Format: in vivo, Triticum aestivum
condition: Preemergence, 31 g ai/ha; scale 0 to 100 (0 no effect, 100 complete control)
Mark TRUE for reported Plant response rating, Wheat of 20 or greater; mark FALSE for anything smaller.

Please check the record CC(C)c1cc[n+]([O-])c([S+]([O-])Cc2c(C(F)(F)F)nn(C)c2OC(F)F)c1 (centres unmarked) and state if its Plant response rating, Wheat is at or above 20. FALSE

Can CCn1nc(C(F)(F)F)c(C[S+]([O-])c2cc(C)cc[n+]2[O-])c1OCC(F)(F)F (racemic) be said to have Plant response rating, Wheat at or above 20? FALSE

# check: Plant response rating, Wheat of Cc1cc[n+]([O-])c(S(=O)(=O)C(Cl)c2c(C(F)(F)F)nn(C)c2Cl)c1 (racemic) is greater than or equal to 20 FALSE

Assess whether reported Plant response rating, Wheat for Cc1cc([S+]([O-])Cc2c(C(F)(F)F)nn(C)c2OCC(F)(F)F)[n+]([O-])cc1Cl (centres unmarked) sits at 20 or higher. FALSE

Check this molecule for Plant response rating, Wheat at or above 20: CC(Oc1c(C[S+]([O-])c2ccc(Cl)c[n+]2[O-])c(C(F)(F)F)nn1C)C(F)(F)F (centres unmarked) TRUE

Does Plant response rating, Wheat meet or surpass 20 for CCn1nc(C(F)(F)F)c(C[S+]([O-])c2cccc[n+]2[O-])c1OCC(F)(F)F (racemic) ? TRUE

# bool: Plant response rating, Wheat of C#CCOc1c(CS(=O)(=O)c2cccc[n+]2[O-])c(C(F)(F)F)nn1C >= 20 FALSE

Is reported Plant response rating, Wheat greater than or equal to 20 here: CCc1cc[n+]([O-])c([S+]([O-])Cc2c(C(F)(F)F)nn(C)c2OCC(F)(F)F)c1 (centres unmarked) TRUE
